Values compiled from PubChem BioAssay AID192.

system: BDF1 mice, B16 melanoma ip, median survival T/C; experiment: NCI In Vivo Anticancer Drug Screen. Data for tumor model B16 Melanoma (intraperitoneal) in B6D2F1 (BDF1) mice; conditions: endpoint: median survival time; dose: 40.0 mg/kg/injection; schedule: Q01DX009 (ip); vehicle: saline with Tween-80; higher = longer survival
Toxic doses and inconclusive results are not listed.
Assignment: determine reported T/C for the given compounds.

Q: Find the measured T/C of OC(CBr)C(O)C(O)C(O)CBr (centres undefined) and report it.
A: 100 % of control

Q: Identify measured T/C associated with CN(C)CC(C(=O)c1ccc(Br)cc1)C(Br)c1ccccc1 (centres undefined)
A: 111 % of control

Q: // Input: Cc1cc(C)c(CCl)cc1CCl . Output its T/C only.
A: 102 % of control

Q: Identify the reported T/C for the following entry. COc1cc([NH-])c([NH-])cc1OC.[Cl][Pt+2][Cl]
A: 103 % of control
